Source: paper PMC11120408

biological target: α-glucosidase (α-Glu) (Saccharomyces cerevisiae, UniProt P53341)
Sequence (P53341 whole entry): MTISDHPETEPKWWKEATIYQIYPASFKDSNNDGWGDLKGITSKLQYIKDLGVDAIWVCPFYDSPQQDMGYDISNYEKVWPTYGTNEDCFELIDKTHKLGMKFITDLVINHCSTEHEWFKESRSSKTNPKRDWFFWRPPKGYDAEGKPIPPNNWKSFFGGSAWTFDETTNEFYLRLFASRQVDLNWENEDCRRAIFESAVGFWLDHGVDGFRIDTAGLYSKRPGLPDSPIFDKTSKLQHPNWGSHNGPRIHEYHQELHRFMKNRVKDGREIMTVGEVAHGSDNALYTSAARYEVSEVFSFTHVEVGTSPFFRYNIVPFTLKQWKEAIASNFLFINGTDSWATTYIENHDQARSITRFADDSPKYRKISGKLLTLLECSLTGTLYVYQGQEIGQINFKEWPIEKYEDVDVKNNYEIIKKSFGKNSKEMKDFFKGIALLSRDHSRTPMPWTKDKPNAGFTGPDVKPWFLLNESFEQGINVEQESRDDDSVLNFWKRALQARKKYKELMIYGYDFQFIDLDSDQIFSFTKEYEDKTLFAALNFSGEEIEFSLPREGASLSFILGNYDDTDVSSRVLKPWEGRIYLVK
pIC50: −log10 of the molar value.

Structure Smiles String: C/C=C/C1=CC2=C(CO1)C(=O)[C@]1(C)OC(=O)[C@H](C(=O)CCCCC)[C@H]1C2
pIC50: 3.52

====

biological target: α-glucosidase (α-Glu) (Saccharomyces cerevisiae, UniProt P53341)
Endpoint Label: Ki (µM)

Structure Smiles String: C/C=C/C1=CC2=C(CO1)C(=O)[C@]1(C)OC(=O)[C@H](C(=O)CCCCC)[C@H]1C2
Endpoint Label: Ki
Numeric Result: 298
